# Species on record: Mus musculus
# Method: Thermal stabilization of mouse KRAS G-quadruplex FAM-GCGGGAGGGAGGGAAGGAGGGAGGGAGGGAG-TAMRA DNA assessed as change in melting temperature at 1:5 DNA:ligand ratio by FRET assay
Mark True for deltaTm under 30 K, False if at or over.

>>> df
                                smiles_repr  qualitative_label
0  N=C(N)NCCCCNc1c2c(c(NCCCCNC(=N)N)c3sccc13)C(=O)c1ccccc1C2=O              False
1  N=C(N)NCCCNc1c2c(c(NCCCNC(=N)N)c3sccc13)C(=O)c1ccccc1C2=O              False
2  N=C(N)NCCCNc1c2c(c(NCCNC(=N)N)c3ccsc13)C(=O)c1ccccc1C2=O               True
3  N=C(N)NCCCNc1c2c(c(NCCNC(=N)N)c3sccc13)C(=O)c1ccccc1C2=O               True

From here, focus on the item given below.
Task: Hello, is deltaTm of the following compound strictly smaller than 30 K? N=C(N)NCCNc1c2c(c(NCCNC(=N)N)c3sccc13)C(=O)c1ccccc1C2=O
Output: True
